Hey, just so you know, these numbers are from the supplement of paper PMC10567573.

# METHOD: protein stability index of a GFP-peptide fusion (GPS, HEK-293T) (PSI 1-6); higher = more stable;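 also: 24-mer peptide tiles fused after GFP, lentivirally expressed, FACS-sorted into six equal bins by GFP/DsRed ratio, decoded by Illumina sequencing, PSI is the read-weighted mean bin number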
# TEST CONTEXT: treatment: MLN4924 1 uM, 8 h; c terminus: a fixed tail appended
Returns one of 1 (yes) or 0 (no); 1 (yes) when protein stability index is >= 4.

SEQUENCE CHAIN: SGSAVSTAPQQKPIGKISKNKKKK [SRPK2]
LABEL CLASS: 1 (yes)
--
SEQUENCE CHAIN: PVLRPMDLMVEATPRRVFANAHTY [PPP2R2B]
LABEL CLASS: 0 (no)
--
SEQUENCE CHAIN: ASSPYISSVQSYPGSASLAQSRLE [DLX1]
LABEL CLASS: 1 (yes)
--
SEQUENCE CHAIN: ERLQLEYVDVVFANRPDPNTPMEE [KCNAB2]
LABEL CLASS: 1 (yes)
--
SEQUENCE CHAIN: QNKIRACGERLSLGLSRAQPVQSK [PDLIM7]
LABEL CLASS: 0 (no)
--
SEQUENCE CHAIN: RFCSEIKSSKYGEGHQAWIVGIVE [SEPHS2]
LABEL CLASS: 0 (no)
--
SEQUENCE CHAIN: STTEWNDETLYQEFNGLKKMNPKL [CHIT1]
LABEL CLASS: 1 (yes)
--
SEQUENCE CHAIN: FYSAEIICAIEYLHSKEIVYRDLK [PRKX]
LABEL CLASS: 0 (no)
--
SEQUENCE CHAIN: EEEEAEDEEVVATAGDRLTEFRKG [IRX6]
LABEL CLASS: 1 (yes)
--
SEQUENCE CHAIN: KEVPVVHTETKTITYESSQVDPGT [EPB41L3]
LABEL CLASS: 1 (yes)
--
SEQUENCE CHAIN: NKTNKNSVSSCDQEHQSALEEAKQ [SMOC2]
LABEL CLASS: 1 (yes)
--
SEQUENCE CHAIN: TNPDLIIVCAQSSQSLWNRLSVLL [SMG5]
LABEL CLASS: 0 (no)
--
SEQUENCE CHAIN: ESLEPDAQVLMLGQILELPWKEET [FANCE]
LABEL CLASS: 1 (yes)
--
SEQUENCE CHAIN: NKTDVVLILELVSGGELFDFLAEK [DAPK3]
LABEL CLASS: 0 (no)
--
SEQUENCE CHAIN: SGSGSGPGCGSVPGSGSGPGPGSG [SPAG8]
LABEL CLASS: 1 (yes)
--
SEQUENCE CHAIN: LYSMECAFHPLFSLTSGACRLDYR [TCF25]
LABEL CLASS: 0 (no)
--
SEQUENCE CHAIN: FYLPSSPNLSLASEDEEEYESGYA [SMG5]
LABEL CLASS: 1 (yes)
--
SEQUENCE CHAIN: KLNKPPETLITTIDSSSSWWTNWV [CYB5A]
LABEL CLASS: 0 (no)
--
SEQUENCE CHAIN: HECKLTQEILELIDREVDLMMRGV [IQUB]
LABEL CLASS: 0 (no)
--
SEQUENCE CHAIN: LLDADWSINAGSWMWLSCSSFFQQ [CRY1]
LABEL CLASS: 0 (no)
--
SEQUENCE CHAIN: LRHKDEEEEDDDDIHITARIESDL [DRICH1]
LABEL CLASS: 1 (yes)
--
SEQUENCE CHAIN: TVLKQIAPEYFEKNEPYLEAACND [DENND6A]
LABEL CLASS: 0 (no)
--
SEQUENCE CHAIN: SFQGCMAQLFMDHLFAGAEVILLV [OR4A15]
LABEL CLASS: 0 (no)
--
SEQUENCE CHAIN: MAKFGVHRILLLAISLTKCLESTK [MIA2]
LABEL CLASS: 0 (no)
--
SEQUENCE CHAIN: LTSLHHFMHSRNLYILGNFMQLKC [PNLIPRP1]
LABEL CLASS: 0 (no)
--
SEQUENCE CHAIN: LFSKWFSESGKLVTKMFQKIQDLI [TRIP13]
LABEL CLASS: 0 (no)

* * *

# METHOD: protein stability index of a GFP-peptide fusion (GPS, HEK-293T) (PSI 1-6); higher = more stable
# TEST CONTEXT: treatment: DMSO; c terminus: a fixed tail appended
Returns one of Y or N; Y when protein stability index is >= 3.

SEQUENCE CHAIN: YSSQLSQVQSLITNVESQLAEIRS [KRT33B]
LABEL CLASS: Y
--
SEQUENCE CHAIN: LLEPEVADGGGAPPQGGCGGGGCD [KCNA3]
LABEL CLASS: Y
--
SEQUENCE CHAIN: MAAESLPFSFGTLSSWELEAWYED [DDIT3]
LABEL CLASS: Y
--
SEQUENCE CHAIN: SYGPVILVVLVVAVVASSVNSYYS [TOR1AIP2]
LABEL CLASS: Y
--
SEQUENCE CHAIN: KVVKSAQHYTETALDEIKLLKCVR [SRPK2]
LABEL CLASS: N
--
SEQUENCE CHAIN: GEEEAESSISSTSNEQLKVTQEPR [ZMYND11]
LABEL CLASS: Y
--
SEQUENCE CHAIN: QNKIRACGERLSLGLSRAQPVQSK [PDLIM7]
LABEL CLASS: Y
--
SEQUENCE CHAIN: PTVIRNVGLGTCSMFSRVGGIIAP [SLC22A15]
LABEL CLASS: N
--
SEQUENCE CHAIN: HAVVGVATALAPLQTDHYAALLGS [SPSB2]
LABEL CLASS: N
--
SEQUENCE CHAIN: AGGEKGPQAFPMSRLWDSRLRHYL [DNAAF3]
LABEL CLASS: N
--
SEQUENCE CHAIN: KLNKPPETLITTIDSSSSWWTNWV [CYB5A]
LABEL CLASS: N
--
SEQUENCE CHAIN: RNTLNQPCSGSVSLQPRRSIAFRL [GMCL1]
LABEL CLASS: N
--
SEQUENCE CHAIN: LTADTKEVTASQEARGLRLSDLED [IRX6]
LABEL CLASS: Y

* * *

# METHOD: protein stability index of a GFP-peptide fusion (GPS, HEK-293T) (PSI 1-6); higher = more stable
# TEST CONTEXT: treatment: DMSO; c terminus: a fixed tail appended
Returns one of rule met or rule not met; rule met when protein stability index is >= 3.

SEQUENCE CHAIN: AAQEGEDEGASAGQGPKPEADSQE [GAGE1]
LABEL CLASS: rule met
//
SEQUENCE CHAIN: SARIGQNCSIGPNVSLGPGVVVED [GMPPB]
LABEL CLASS: rule met
//
SEQUENCE CHAIN: HATALVEAFRLKQQLHARYVLNLL [PPEF2]
LABEL CLASS: rule not met
//
SEQUENCE CHAIN: GTSDYDDVLSCEYYSPILDQWTPI [KLHL13]
LABEL CLASS: rule not met
//
SEQUENCE CHAIN: HRFVEKPQVFVSNKINAGMYILSP [GMPPB]
LABEL CLASS: rule not met
//
SEQUENCE CHAIN: TSCLKKREEMKLKECVSILPRKES [TNFSF13B]
LABEL CLASS: rule met
//
SEQUENCE CHAIN: EPLRILSKYHRFISFTLYLIGFCM [CDS2]
LABEL CLASS: rule not met
//
SEQUENCE CHAIN: TFDHEHHTTIVATRHYRPPEVILE [CLK3]
LABEL CLASS: rule met
//
SEQUENCE CHAIN: RQVKHYRIFRLPNNWYYISPRLTF [SLA]
LABEL CLASS: rule not met
//
SEQUENCE CHAIN: LHHVKTMWYPEIKHFCPRAPVILV [RHOBTB2]
LABEL CLASS: rule not met

* * *

Measured protein stability index by item
# METHOD: protein stability index of a GFP-peptide fusion (GPS, HEK-293T) (PSI 1-6); higher = more stable
# TEST CONTEXT: treatment: MLN4924 1 uM, 8 h; c terminus: a fixed tail appended

SEQUENCE CHAIN: VCQKLLLDAMNYHLMPFRQHCRQS [KLHL14]
protein stability index: 2.99
--
SEQUENCE CHAIN: KIQDLIDDKDALVFVLIDEVESLT [TRIP13]
protein stability index: 2.36
--
SEQUENCE CHAIN: VSEWASKAKANGITMYAVGVGKAI [MATN2]
protein stability index: 2.36
--
SEQUENCE CHAIN: QLDWDELETNQQHFHALCHSLLVS [M1AP]
protein stability index: 2.69
--
SEQUENCE CHAIN: DKNISPRENILVSLGAVGEGFHNY [SCD]
protein stability index: 3.18
--
SEQUENCE CHAIN: SDSEANGFAERRIDKFGFIVGSQG [TBC1D10A]
protein stability index: 4.07
--
SEQUENCE CHAIN: VGLNTIADLWYLFGDLSLSLVTVG [POMT2]
protein stability index: 3.16
--
SEQUENCE CHAIN: PAHLYFQAHGSEGLTFQGLLPLTE [PLEKHN1]
protein stability index: 2.9
--
SEQUENCE CHAIN: ITHTREEQPHGRSRRREQSSSRNS [ZNF8]
protein stability index: 5.41
--
SEQUENCE CHAIN: GKAATMEIPIHGNGEARQLPEDDG [ARFIP2]
protein stability index: 5.34
--
SEQUENCE CHAIN: GWYRPPFSRVVHLYRNGKDQDGDQ [MOG]
protein stability index: 3.73
--
SEQUENCE CHAIN: SKKTFQITKQGDGVDFLSWFLNAL [USP39]
protein stability index: 2.29
--
SEQUENCE CHAIN: NAGQSDNRSLAEACSEGDVNAVRK [ANKRD17]
protein stability index: 5.46
--
SEQUENCE CHAIN: YSLMKRQMMSATAQNREPESVEQL [SNX8]
protein stability index: 4.48
--
SEQUENCE CHAIN: RTSRKFLACRLTPDMETKLLFMTS [INTS3]
protein stability index: 2.33
--
SEQUENCE CHAIN: TVNIHRLHVKRSMGWKKACDELEL [ZMYND11]
protein stability index: 2.77
--
SEQUENCE CHAIN: LDSGIHSGATTTAPSLSGKGNPEE [CTNNB1]
protein stability index: 5.54
--
SEQUENCE CHAIN: GPRPVQSVVPEMEESGAQLLLEML [CDK4]
protein stability index: 3.71
--
SEQUENCE CHAIN: KSRLSSVSVTYCSVSQDFPGSNLN [ETS2]
protein stability index: 2.64
--
SEQUENCE CHAIN: IANPNSLHHVKTMWYPEIKHFCPR [RHOBTB2]
protein stability index: 2.64
--
SEQUENCE CHAIN: GEAGWGAGEGRLGHKRKQPLPKRV [FOXJ1]
protein stability index: 4.59
--
SEQUENCE CHAIN: RVQVLKNEVRRGSPVLLGWVEQAY [TIAF1]
protein stability index: 2.21
--
SEQUENCE CHAIN: CRDGEVLLRLSKHGPGHETPMTIP [ACSBG2]
protein stability index: 2.66
--
SEQUENCE CHAIN: LKFDMKYMNFRVKACNKAVAGEFS [FSD1]
protein stability index: 2.17
--
SEQUENCE CHAIN: AFPFNMQELVLKVRIQNPSLREND [ANKRD40]
protein stability index: 2.33
--
SEQUENCE CHAIN: PENQEYFEKHRWPPVWYLKEEDHY [RHOBTB2]
protein stability index: 3.57
--
SEQUENCE CHAIN: IPLEQGSSCNGPGQTTGHPYYLRS [FAN1]
protein stability index: 5
